- Target Or Test System: C4 single-chain Fv antibody (C4 scFv) (human (from a human scFv phage-display …))
- Experiment: ITC
Reported Endpoint: Ka (M⁻¹)

Field: example entries. Status: answers known.
[
  {
    "Binder": "MATLEKLMKAFESLKSF [HTT(1-17) peptide, the 17 N-terminal residues of huntingtin]",
    "Ka [M⁻¹]": "1.8e+07"
  },
  {
    "Binder": "MATLEKLMKAFESLK [truncated peptide HTT(1-15)]",
    "Ka [M⁻¹]": "6.87e+06"
  }
]

A. MATLEKLMKAFESLKS [truncated peptide HTT(1-16)]
B. MATLEKLMKAFESL [truncated peptide HTT(1-14)]
Smaller Ka value, A vs B ? Returns: label corresponding to the selected item. B

Origin of measurements: paper PMC4451460
